Assay: in vivo
Conditions: male, Sprague-Dawley, mouse, iv
assay_metric: LD50 at 7 days (µmol/kg)
Write the answer as a number in µmol/kg, unit excluded.

GET /value?item= CN(C(=O)CC(=O)N(C)c1c(I)c(C(=O)NC(CO)C(O)CO)c(I)c(C(=O)NC(CO)C(O)CO)c1I)c1c(I)c(C(=O)NC(CO)C(O)CO)c(I)c(C(=O)NC(CO)C(O)CO)c1I (stereo not shown) [Iotrolan, reference compound] &field=LD50 at 7 days returns 63000

----------
Experiment: Viscosity of contrast media formulations (capillary viscosimeter)
Assay type: physicochemical
Conditions: formulations 0.788 (monomer) or 0.394 (dimer) mol/L
Description: For this purpose contrast media formulation with a molar concentration of […] for monomeric compounds and of […] for dimeric compounds, equivalent to a iodine concentration of 300 mgI/mL or 189 mgBr/mL were prepared at neutral pH. After heat sterilization under standard conditions for 20 min at 120°C changes in pH and free bromine and iodine was measured. The osmolality was measured at 37°C using a Knauer vapor pressure osmometer. […]
assay_metric: Viscosity (37°C) (mPa·s)
Write the answer as a number in mPa·s, unit excluded.

Examples with answers:
GET /value?item= NC(=O)c1c(Br)c(C(=O)NCC(O)CO)c(Br)c(N(CC(O)CO)C(=O)CC(=O)N(CC(O)CO)c2c(Br)c(C(N)=O)c(Br)c(C(=O)NCC(O)CO)c2Br)c1Br (stereo not drawn) &field=Viscosity (37°C) returns 5.5

GET /value?item= CN(C(=O)CC(=O)N(C)c1c(Br)c(C(=O)NC(CO)C(O)CO)c(Br)c(C(=O)NC(CO)C(O)CO)c1Br)c1c(Br)c(C(=O)NC(CO)C(O)CO)c(Br)c(C(=O)NC(CO)C(O)CO)c1Br (stereo not drawn) &field=Viscosity (37°C) returns 6.3

GET /value?item= NC(=O)c1c(Br)c(C(=O)NC(CO)C(O)CO)c(Br)c(N(CCO)C(=O)CO)c1Br (stereo not drawn) &field=Viscosity (37°C) returns 3.4

GET /value?item= CC(=O)N(CC(O)CO)c1c(Br)c(C(=O)NCC(O)CO)c(Br)c(C(=O)NCC(O)CO)c1Br (stereo not drawn) [reference compound] &field=Viscosity (37°C) returns 4.6

GET /value?item= CN(CC(O)CO)C(=O)c1c(Br)c(NC(=O)CO)c(Br)c(C(=O)NCC(O)CO)c1Br (stereo not drawn) &field=Viscosity (37°C) returns 3.5

Continue with the next compound.
GET /value?item= CN(C(=O)CC(=O)N(C)c1c(I)c(C(=O)NC(CO)C(O)CO)c(I)c(C(=O)NC(CO)C(O)CO)c1I)c1c(I)c(C(=O)NC(CO)C(O)CO)c(I)c(C(=O)NC(CO)C(O)CO)c1I (stereo not drawn) [Iotrolan, reference compound] &field=Viscosity (37°C) returns 8.5

----------
Test: Aqueous solubility
Assay type: physicochemical
assay_metric: Aqueous solubility

Examples with answers:
GET /value?item= NC(=O)c1c(Br)c(C(=O)NCC(O)CO)c(Br)c(N(CC(O)CO)C(=O)CC(=O)N(CC(O)CO)c2c(Br)c(C(N)=O)c(Br)c(C(=O)NCC(O)CO)c2Br)c1Br (stereo not drawn) [Example 25] &field=Aqueous solubility returns 400 mgBr/mL

GET /value?item= NC(=O)c1c(Br)c(C(=O)NC(CO)C(O)CO)c(Br)c(N(CCO)C(=O)CO)c1Br (stereo not drawn) [Example 14] &field=Aqueous solubility returns >400 mgBr/mL

Further cases:
GET /value?item= CN(CC(O)CO)C(=O)c1c(Br)c(NC(=O)CO)c(Br)c(C(=O)NCC(O)CO)c1Br (stereo not drawn) [Example 4] &field=Aqueous solubility returns >400 mgBr/mL

GET /value?item= CN(C(=O)CC(=O)N(C)c1c(I)c(C(=O)NC(CO)C(O)CO)c(I)c(C(=O)NC(CO)C(O)CO)c1I)c1c(I)c(C(=O)NC(CO)C(O)CO)c(I)c(C(=O)NC(CO)C(O)CO)c1I (stereo not drawn) [Iotrolan, reference compound] &field=Aqueous solubility returns >400 mgBr/mL

GET /value?item= CC(=O)N(CC(O)CO)c1c(Br)c(C(=O)NCC(O)CO)c(Br)c(C(=O)NCC(O)CO)c1Br (stereo not drawn) [reference compound] &field=Aqueous solubility returns > 300 mgBr/mL

GET /value?item= CN(C(=O)CC(=O)N(C)c1c(Br)c(C(=O)NC(CO)C(O)CO)c(Br)c(C(=O)NC(CO)C(O)CO)c1Br)c1c(Br)c(C(=O)NC(CO)C(O)CO)c(Br)c(C(=O)NC(CO)C(O)CO)c1Br (stereo not drawn) [Example 26] &field=Aqueous solubility returns 400 mgBr/mL
